Sourced from patent US20220112479A1

Target: Savinase Ultra 16.0L (Lederbergia lenta, UniProt P29600)
Construct: purchased Sigma-Aldrich
Sequence (P29600 1-269): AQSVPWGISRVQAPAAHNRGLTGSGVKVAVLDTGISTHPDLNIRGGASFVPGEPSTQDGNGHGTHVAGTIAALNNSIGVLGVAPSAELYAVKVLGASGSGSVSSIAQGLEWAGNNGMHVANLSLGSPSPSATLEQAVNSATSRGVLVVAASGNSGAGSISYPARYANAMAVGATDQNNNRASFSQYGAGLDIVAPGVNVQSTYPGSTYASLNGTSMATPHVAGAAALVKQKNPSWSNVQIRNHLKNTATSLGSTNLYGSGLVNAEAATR
Assay: protease storage stability in liquid formulation (Suc-AAPF-pNA substrate)
Format: biochemical
Conditions: base formulation III., 1.5 wt % component (a), storage at 37° C., 42 d
Description: Base test formulations were manufactured by making base formulations I to V by mixing the components according to Table 1. Protease used: (S) Savinase Ultra 16.0L (CAS-No. 9014-01-1, EC-No. 232-752-2) was purchased from Sigma-Aldrich […] The proteolytic activity values provided in Table 3 were calculated referring to the value determined in the reference formulation at the time 0. […]
Each item that follows carries a reported protease activity, referring to reference formulation at time 0.

A selection of reference data follows.
CCCCOC(=O)CC(CC(=O)OCCCC)(OC(C)=O)C(=O)OCCCC [A.4, Acetyltributylcitrate] ... 70
CCCOC(=O)CC(O)(CC(=O)OCCC)C(=O)OCCC [A.2, Tripropylcitrate] ... 73
CCOC(=O)CC(O)(CC(=O)OCC)C(=O)OCC [A.1, Triethylcitrate] ... 67

Shift focus to the following entry.
**Q:** Any idea what its protease activity, referring to reference formulation at time 0 is? The compound is CCOC(=O)CC(CC(=O)OCC)(OC(C)=O)C(=O)OCC [A.5, Acetyltriethylcitrate]
**A:** 65

* * *

Target: Savinase Ultra 16.0L (Lederbergia lenta, UniProt P29600)
Construct: purchased Sigma-Aldrich
Experiment: protease storage stability in liquid formulation (Suc-AAPF-pNA substrate)
Assay type: biochemical
Conditions: base formulation III., 1.5 wt % component (a), storage at 37° C., 3 d
Each item that follows carries a reported protease activity, referring to reference formulation at time 0.
Answer with a bare number; do not write a unit.

A selection of reference data follows.
CCOC(=O)CC(O)(CC(=O)OCC)C(=O)OCC [A.1, Triethylcitrate] ... 99
CCCOC(=O)CC(O)(CC(=O)OCCC)C(=O)OCCC [A.2, Tripropylcitrate] ... 100
CCOC(=O)CC(CC(=O)OCC)(OC(C)=O)C(=O)OCC [A.5, Acetyltriethylcitrate] ... 98

Shift focus to the following entry.
**Q:** Any idea what its protease activity, referring to reference formulation at time 0 is? The compound is CCCCOC(=O)CC(CC(=O)OCCCC)(OC(C)=O)C(=O)OCCCC [A.4, Acetyltributylcitrate]
**A:** 99

* * *

Target: Savinase Ultra 16.0L (Lederbergia lenta, UniProt P29600)
Construct: purchased Sigma-Aldrich
Experiment: protease storage stability in liquid formulation (Suc-AAPF-pNA substrate)
Assay type: biochemical
Conditions: base formulation V., 2.0 wt % component (a), storage at 37° C., 42 d
Metric: protease activity, referring to reference formulation at time 0
Answer with a bare number; do not write a unit.

A selection of reference data follows.
CCCOC(=O)CC(O)(CC(=O)OCCC)C(=O)OCCC [A.2, Tripropylcitrate] ... 70
CCCCOC(=O)CC(CC(=O)OCCCC)(OC(C)=O)C(=O)OCCCC [A.4, Acetyltributylcitrate] ... 68
O=C(CC(O)(CC(=O)OCc1ccccc1)C(=O)OCc1ccccc1)OCc1ccccc1 [A.8, Tribenzylcitrate] ... 69

Shift focus to the following entry.
**Q:** Any idea what its protease activity, referring to reference formulation at time 0 is? The molecule is CCOC(=O)CC(O)(CC(=O)OCC)C(=O)OCC [A.1, Triethylcitrate]
**A:** 65

* * *

Target: Savinase Ultra 16.0L (Lederbergia lenta)
Construct: purchased Sigma-Aldrich
Assay: protease storage stability in liquid formulation (Suc-AAPF-pNA substrate)
Assay type: biochemical
Details: base formulation I., 1.5 wt % component (a), storage at 37° C., 42 d
Metric: protease activity, referring to reference formulation at time 0
Answer with a bare number; do not write a unit.

CCCOC(=O)CC(O)(CC(=O)OCCC)C(=O)OCCC [A.2, Tripropylcitrate] ... 71

**Q:** Any idea what its protease activity, referring to reference formulation at time 0 is? The compound is CCOC(=O)CC(O)(CC(=O)OCC)C(=O)OCC [A.1, Triethylcitrate]
**A:** 67

**Q:** Any idea what its protease activity, referring to reference formulation at time 0 is? The compound is CCOC(=O)CC(CC(=O)OCC)(OC(C)=O)C(=O)OCC [A.5, Acetyltriethylcitrate]
**A:** 62

**Q:** Any idea what its protease activity, referring to reference formulation at time 0 is? The compound is CCCCOC(=O)CC(CC(=O)OCCCC)(OC(C)=O)C(=O)OCCCC [A.4, Acetyltributylcitrate]
**A:** 70

* * *

Each item that follows carries a reported protease activity, referring to reference formulation at time 0.
Target: Savinase Ultra 16.0L (Lederbergia lenta)
Construct: purchased Sigma-Aldrich
Sequence (P29600 1-269): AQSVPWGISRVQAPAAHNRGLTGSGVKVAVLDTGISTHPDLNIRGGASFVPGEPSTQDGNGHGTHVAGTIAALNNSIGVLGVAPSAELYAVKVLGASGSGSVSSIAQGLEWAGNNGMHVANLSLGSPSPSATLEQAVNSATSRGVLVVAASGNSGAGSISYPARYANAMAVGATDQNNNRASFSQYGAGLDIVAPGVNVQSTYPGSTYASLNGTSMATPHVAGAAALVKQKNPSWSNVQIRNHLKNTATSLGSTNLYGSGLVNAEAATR
Test: protease storage stability in liquid formulation (Suc-AAPF-pNA substrate)
Assay type: biochemical
Details: base formulation V., 2.0 wt % component (a), storage at 37° C., T0
Answer with a bare number; do not write a unit.

CCOC(=O)CC(O)(CC(=O)OCC)C(=O)OCC [A.1, Triethylcitrate] ... 99

**Q:** Any idea what its protease activity, referring to reference formulation at time 0 is? The molecule is O=C(CC(O)(CC(=O)OCc1ccccc1)C(=O)OCc1ccccc1)OCc1ccccc1 [A.8, Tribenzylcitrate]
**A:** 100

**Q:** Any idea what its protease activity, referring to reference formulation at time 0 is? The molecule is CCCCOC(=O)CC(CC(=O)OCCCC)(OC(C)=O)C(=O)OCCCC [A.4, Acetyltributylcitrate]
**A:** 98

**Q:** Any idea what its protease activity, referring to reference formulation at time 0 is? The molecule is CCCOC(=O)CC(O)(CC(=O)OCCC)C(=O)OCCC [A.2, Tripropylcitrate]
**A:** 100

* * *

Target: Savinase Ultra 16.0L (Lederbergia lenta)
Construct: purchased Sigma-Aldrich
Sequence (P29600 1-269): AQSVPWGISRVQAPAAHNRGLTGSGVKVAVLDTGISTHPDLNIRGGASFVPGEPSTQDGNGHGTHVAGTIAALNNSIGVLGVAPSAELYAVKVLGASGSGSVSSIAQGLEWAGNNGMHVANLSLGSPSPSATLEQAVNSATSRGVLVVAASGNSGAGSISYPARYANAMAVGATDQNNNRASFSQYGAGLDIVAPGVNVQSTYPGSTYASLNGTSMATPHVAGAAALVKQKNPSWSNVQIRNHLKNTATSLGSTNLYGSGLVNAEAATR
Experiment: protease storage stability in liquid formulation (Suc-AAPF-pNA substrate)
Assay type: biochemical
Settings: base formulation I., 1.5 wt % component (a), storage at 37° C., 28 d
Metric: protease activity, referring to reference formulation at time 0
Answer with a bare number; do not write a unit.

CCCOC(=O)CC(O)(CC(=O)OCCC)C(=O)OCCC [A.2, Tripropylcitrate] ... 81
CCOC(=O)CC(O)(CC(=O)OCC)C(=O)OCC [A.1, Triethylcitrate] ... 79
CCCCOC(=O)CC(CC(=O)OCCCC)(OC(C)=O)C(=O)OCCCC [A.4, Acetyltributylcitrate] ... 82

**Q:** Any idea what its protease activity, referring to reference formulation at time 0 is? The compound is CCOC(=O)CC(CC(=O)OCC)(OC(C)=O)C(=O)OCC [A.5, Acetyltriethylcitrate]
**A:** 76

* * *

Target: Savinase Ultra 16.0L (Lederbergia lenta, UniProt P29600)
Construct: purchased Sigma-Aldrich
Assay: protease storage stability in liquid formulation (Suc-AAPF-pNA substrate)
Assay type: biochemical
Conditions: base formulation III., 1.5 wt % component (a), storage at 37° C., T0
Each item that follows carries a reported protease activity, referring to reference formulation at time 0.

A selection of reference data follows.
CCOC(=O)CC(CC(=O)OCC)(OC(C)=O)C(=O)OCC [A.5, Acetyltriethylcitrate] ... 100
CCCOC(=O)CC(O)(CC(=O)OCCC)C(=O)OCCC [A.2, Tripropylcitrate] ... 101
CCCCOC(=O)CC(CC(=O)OCCCC)(OC(C)=O)C(=O)OCCCC [A.4, Acetyltributylcitrate] ... 101

Shift focus to the following entry.
**Q:** For Savinase Ultra 16.0L (Lederbergia lenta, UniProt P29600), provide protease activity, referring to reference formulation at time 0 of CCOC(=O)CC(O)(CC(=O)OCC)C(=O)OCC [A.1, Triethylcitrate] please.
**A:** 100
